- assay.target: human Cav2.2 (Homo sapiens, UniProt Q00975)
- Construct: IMR32 cells endogenously expressing human Cav2.2; endogenous in cells
- Sequence (Q00975 whole entry): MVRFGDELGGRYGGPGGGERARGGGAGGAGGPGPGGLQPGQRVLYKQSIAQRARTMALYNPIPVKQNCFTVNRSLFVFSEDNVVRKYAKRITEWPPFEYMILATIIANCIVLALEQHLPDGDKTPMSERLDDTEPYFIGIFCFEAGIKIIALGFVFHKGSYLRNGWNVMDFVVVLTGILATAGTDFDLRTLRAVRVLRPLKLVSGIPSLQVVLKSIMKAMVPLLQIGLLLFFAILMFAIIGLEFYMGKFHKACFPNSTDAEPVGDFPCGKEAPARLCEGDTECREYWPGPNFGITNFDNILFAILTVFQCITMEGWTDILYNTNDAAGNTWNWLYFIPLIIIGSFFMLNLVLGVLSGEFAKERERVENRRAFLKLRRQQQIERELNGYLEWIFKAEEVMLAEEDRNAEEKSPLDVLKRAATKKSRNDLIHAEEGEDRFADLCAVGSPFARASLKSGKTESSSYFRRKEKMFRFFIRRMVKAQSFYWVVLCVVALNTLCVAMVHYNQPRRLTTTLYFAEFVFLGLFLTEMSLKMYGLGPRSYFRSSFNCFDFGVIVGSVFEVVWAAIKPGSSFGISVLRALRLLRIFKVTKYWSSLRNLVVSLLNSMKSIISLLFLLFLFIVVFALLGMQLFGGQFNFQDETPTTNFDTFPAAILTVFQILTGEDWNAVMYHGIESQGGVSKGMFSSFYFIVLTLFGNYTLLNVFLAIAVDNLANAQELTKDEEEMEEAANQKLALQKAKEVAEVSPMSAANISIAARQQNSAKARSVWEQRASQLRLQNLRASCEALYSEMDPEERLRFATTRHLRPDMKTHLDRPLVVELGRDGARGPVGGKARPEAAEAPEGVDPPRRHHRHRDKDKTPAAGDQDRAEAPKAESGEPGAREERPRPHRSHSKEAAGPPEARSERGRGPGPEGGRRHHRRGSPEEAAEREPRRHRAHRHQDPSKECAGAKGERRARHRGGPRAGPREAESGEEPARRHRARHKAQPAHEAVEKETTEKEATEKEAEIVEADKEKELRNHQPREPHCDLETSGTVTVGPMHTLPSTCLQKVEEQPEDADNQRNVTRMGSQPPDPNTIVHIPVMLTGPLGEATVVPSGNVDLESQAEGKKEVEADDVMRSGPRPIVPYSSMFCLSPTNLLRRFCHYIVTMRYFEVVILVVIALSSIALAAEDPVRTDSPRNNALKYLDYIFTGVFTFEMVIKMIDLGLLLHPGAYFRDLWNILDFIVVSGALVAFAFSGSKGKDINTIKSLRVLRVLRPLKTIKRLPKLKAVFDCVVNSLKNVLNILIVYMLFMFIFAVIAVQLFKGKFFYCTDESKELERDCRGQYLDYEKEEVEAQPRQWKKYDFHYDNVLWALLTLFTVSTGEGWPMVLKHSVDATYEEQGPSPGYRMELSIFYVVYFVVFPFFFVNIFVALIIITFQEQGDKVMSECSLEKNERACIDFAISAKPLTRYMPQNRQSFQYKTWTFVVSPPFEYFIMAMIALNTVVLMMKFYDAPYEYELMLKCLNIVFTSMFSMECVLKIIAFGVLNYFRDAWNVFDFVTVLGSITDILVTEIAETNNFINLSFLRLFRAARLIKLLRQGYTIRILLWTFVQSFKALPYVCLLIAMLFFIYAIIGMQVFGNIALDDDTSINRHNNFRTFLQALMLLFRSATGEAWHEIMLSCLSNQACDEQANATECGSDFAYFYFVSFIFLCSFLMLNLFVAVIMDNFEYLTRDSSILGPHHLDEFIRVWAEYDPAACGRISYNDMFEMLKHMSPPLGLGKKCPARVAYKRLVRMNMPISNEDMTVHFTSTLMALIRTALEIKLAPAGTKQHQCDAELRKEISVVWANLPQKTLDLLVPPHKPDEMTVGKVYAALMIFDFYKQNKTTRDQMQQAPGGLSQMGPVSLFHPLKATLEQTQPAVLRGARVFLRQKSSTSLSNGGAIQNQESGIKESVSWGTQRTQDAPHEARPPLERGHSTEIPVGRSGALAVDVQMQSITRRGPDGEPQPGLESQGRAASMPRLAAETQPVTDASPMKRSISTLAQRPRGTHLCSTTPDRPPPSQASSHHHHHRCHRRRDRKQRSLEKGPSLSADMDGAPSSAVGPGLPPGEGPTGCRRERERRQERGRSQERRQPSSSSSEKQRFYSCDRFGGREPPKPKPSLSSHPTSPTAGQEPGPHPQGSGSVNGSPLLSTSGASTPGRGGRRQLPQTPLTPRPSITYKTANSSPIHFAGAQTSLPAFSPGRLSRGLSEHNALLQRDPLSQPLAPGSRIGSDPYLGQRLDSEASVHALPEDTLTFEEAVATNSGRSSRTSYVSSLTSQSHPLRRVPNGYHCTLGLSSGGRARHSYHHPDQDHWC
- Sequence (P54289 25-956 partner limits assumed): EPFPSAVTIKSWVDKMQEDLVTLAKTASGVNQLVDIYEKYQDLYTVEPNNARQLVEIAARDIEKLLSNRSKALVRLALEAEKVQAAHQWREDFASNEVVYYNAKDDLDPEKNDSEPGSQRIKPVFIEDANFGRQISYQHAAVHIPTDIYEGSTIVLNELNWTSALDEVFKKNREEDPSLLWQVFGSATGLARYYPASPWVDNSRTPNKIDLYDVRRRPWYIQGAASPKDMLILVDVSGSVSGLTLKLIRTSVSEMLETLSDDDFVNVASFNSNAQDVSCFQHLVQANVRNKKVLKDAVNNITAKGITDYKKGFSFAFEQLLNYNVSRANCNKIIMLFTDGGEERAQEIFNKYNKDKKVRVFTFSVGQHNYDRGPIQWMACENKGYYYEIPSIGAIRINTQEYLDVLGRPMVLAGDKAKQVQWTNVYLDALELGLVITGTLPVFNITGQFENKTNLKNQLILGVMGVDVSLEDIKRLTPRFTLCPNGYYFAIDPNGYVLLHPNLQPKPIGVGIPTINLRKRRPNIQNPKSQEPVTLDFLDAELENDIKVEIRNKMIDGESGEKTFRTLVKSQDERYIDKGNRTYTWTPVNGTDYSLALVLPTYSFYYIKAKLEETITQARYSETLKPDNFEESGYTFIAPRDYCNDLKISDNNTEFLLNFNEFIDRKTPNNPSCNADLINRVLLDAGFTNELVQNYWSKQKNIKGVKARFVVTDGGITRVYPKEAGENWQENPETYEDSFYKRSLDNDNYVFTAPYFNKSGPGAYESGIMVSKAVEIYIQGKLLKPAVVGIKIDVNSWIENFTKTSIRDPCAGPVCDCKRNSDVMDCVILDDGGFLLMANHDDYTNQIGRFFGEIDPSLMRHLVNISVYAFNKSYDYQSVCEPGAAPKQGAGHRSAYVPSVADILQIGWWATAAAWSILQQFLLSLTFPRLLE
- Sequence (P54289 957-1103 partner limits assumed): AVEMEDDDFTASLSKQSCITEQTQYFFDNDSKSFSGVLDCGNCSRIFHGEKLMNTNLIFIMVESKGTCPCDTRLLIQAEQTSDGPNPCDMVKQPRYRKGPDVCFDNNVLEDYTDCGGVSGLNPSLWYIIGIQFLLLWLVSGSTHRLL
- Sequence (P54284 whole entry partner): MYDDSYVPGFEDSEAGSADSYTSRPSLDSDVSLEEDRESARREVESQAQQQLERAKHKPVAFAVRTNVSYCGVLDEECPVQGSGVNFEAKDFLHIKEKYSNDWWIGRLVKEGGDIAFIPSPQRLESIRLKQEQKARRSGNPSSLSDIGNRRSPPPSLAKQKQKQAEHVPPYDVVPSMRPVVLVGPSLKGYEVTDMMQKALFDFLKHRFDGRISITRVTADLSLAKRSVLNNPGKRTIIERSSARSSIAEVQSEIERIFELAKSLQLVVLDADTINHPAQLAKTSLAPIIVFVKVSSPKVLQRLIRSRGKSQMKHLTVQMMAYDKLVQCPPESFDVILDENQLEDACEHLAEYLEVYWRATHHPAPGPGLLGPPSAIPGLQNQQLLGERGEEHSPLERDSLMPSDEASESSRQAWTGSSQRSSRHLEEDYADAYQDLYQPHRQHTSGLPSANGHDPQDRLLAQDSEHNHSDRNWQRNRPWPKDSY
- measurement.description: Assessment of calcium channel activity using FLIPR (Ca2+ influx in IMR32 cells)
- assay.setup: IMR32 cells endogenously expressing human Cav2.2, Calcium 4 dye, 60 minute pre-incubation, 2 μM nifedipine, depolarized with 80 mM KCl, 5 mM CaCl2
pIC50: −log10 of the molar value.
measured.quantity: pIC50

>>> print(df.to_string())
                                smiles_repr  reported_value
0  O[C@H]1[C@H]2CN(c3cccc(C(F)(F)F)n3)C[C@H]2C[C@H]1n1ccnc1            4.97
1  FC(F)(F)c1cccc(N2C[C@H]3CC[C@H](n4cnc5ccccc54)[C@H]3C2)n1            5.71
2  C[C@@]1(O)CC[C@@H]2CN(c3cccc(C(F)(F)F)n3)C[C@@H]21            5.08
3  CC(C)[C@@]1(O)CC[C@@H]2CN(c3cccc(C(F)(F)F)n3)C[C@@H]21            5.52

###

- assay.target: human Cav2.2 (Homo sapiens, UniProt Q00975)
- Construct: IMR32 cells endogenously expressing human Cav2.2; endogenous in cells
- measurement.description: Assessment of calcium channel activity using FLIPR (Ca2+ influx in IMR32 cells)
- assay.setup: IMR32 cells endogenously expressing human Cav2.2, Calcium 4 dye, 60 minute pre-incubation, 2 μM nifedipine, depolarized with 80 mM KCl, 5 mM CaCl2
pIC50: −log10 of the molar value.
measured.quantity: pIC50

>>> print(df.to_string())
                                   compound  reported_value
0  C=C1CC[C@@H]2CN(Cc3ccccc3)C[C@H]12 [Example 1]          < 4.52
1  CC(=O)N[C@@]1(C)CC[C@@H]2CN(Cc3ccccc3)C[C@@H]21 [Example 5]          < 4.52
2  O=C(Nc1cccc(F)c1)[C@H]1CC[C@@H]2CNC[C@@H]21 [Example 55]          < 4.52
